- Test system: NCI/ADR-RES ovarian
- TEST_SUMMARY: NCI-60 one-dose screen, 48 h
- CONDITION: 10 µM unless noted
Compounds without any hit were thinned out: in the full panel of roughly 83,000, 20% have a hit. The source made the active and inactive calls. Rule for the calls: active = growth percent below 10; inactive = the rest.
Select the matching outcome among t for active, f for inactive

*Q* Lab log entry: COc1cc2oc(-c3cccc(NC(=O)c4cc(NC(=O)[C@H](C)N)ccc4Cl)c3)cc(=O)c2c(OC)c1OC — outcome as called in the assay?
*A* f

*Q* Lab log entry: C#Cc1ccc(NC(=O)c2ccc(/C=C/C(=O)c3nccn3C)cc2)c(F)c1 — outcome as called in the assay?
*A* f

Where do these numbers come from? They come from PubChem BioAssay (NCI).
